Molecular target: human SGLT1 (Homo sapiens, UniProt P13866)
Sequence (P13866 whole entry): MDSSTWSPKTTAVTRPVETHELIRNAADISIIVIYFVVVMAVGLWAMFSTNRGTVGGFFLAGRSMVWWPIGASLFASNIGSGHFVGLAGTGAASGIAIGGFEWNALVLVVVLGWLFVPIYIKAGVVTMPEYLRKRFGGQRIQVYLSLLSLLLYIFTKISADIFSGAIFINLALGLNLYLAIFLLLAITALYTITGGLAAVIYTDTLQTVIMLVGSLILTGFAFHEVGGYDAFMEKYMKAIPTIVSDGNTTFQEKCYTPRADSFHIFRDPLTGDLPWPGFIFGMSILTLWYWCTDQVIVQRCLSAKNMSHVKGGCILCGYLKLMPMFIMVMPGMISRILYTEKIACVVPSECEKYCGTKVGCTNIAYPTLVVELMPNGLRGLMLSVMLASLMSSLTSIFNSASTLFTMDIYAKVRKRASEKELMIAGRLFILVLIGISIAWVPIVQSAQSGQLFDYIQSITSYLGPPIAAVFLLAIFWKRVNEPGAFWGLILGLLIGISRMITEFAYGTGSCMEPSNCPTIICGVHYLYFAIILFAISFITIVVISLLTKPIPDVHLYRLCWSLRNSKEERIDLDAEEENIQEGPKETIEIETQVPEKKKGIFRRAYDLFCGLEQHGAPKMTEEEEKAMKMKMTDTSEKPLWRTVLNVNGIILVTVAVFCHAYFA
Test: Sodium-dependent 14C-methyl-α-D-glucopyranoside uptake in CHO-K1 cells stably expressing human SGLT1
Conditions: 14C-methyl-α-D-glucopyranoside uptake
Recorded IC50 values for a group of molecules are listed next.

{"columns": ["MOLECULE", "COMPARATOR", "IC50, nM"],
 "data": [
  ["OC[C@@H]1C[C@H](O)[C@@H](O)[C@H](c2cc(Cc3cc4ccccc4s3)c(C3CC3)cc2O)O1 [Cpd 12]", "=", 99],
  ["OC[C@@H]1C[C@H](O)[C@@H](O)[C@H](c2cc(Cc3cc4ccccc4s3)c(C(F)(F)F)cc2O)O1 [Cpd 16]", "=", 240],
  ["Cc1cc(O)c([C@@H]2O[C@H](CO)C[C@H](O)[C@H]2O)cc1Cc1cc2cc(F)ccc2s1 [Cpd 19]", "=", 220],
  ["Cc1cc(-c2cc[nH]n2)c([C@@H]2O[C@H](CO)C[C@H](O)[C@H]2O)cc1Cc1cc2ccccc2s1 [Cpd 27]", "=", 734],
  ["Cc1cc(O)c([C@@H]2O[C@H](CO)C[C@H](O)[C@H]2O)cc1Cc1ccc(-c2ccc(F)cc2)s1 [Cpd 31]", "=", 272],
  ["COc1cc(O)c([C@@H]2O[C@H](CO)C[C@H](O)[C@H]2O)cc1Cc1cc2ccccc2s1 [Cpd 2]", "=", 155],
  ["Cc1cc(O)c([C@@H]2O[C@H](CO)C[C@H](O)[C@H]2O)cc1Cc1cc2ccccc2s1 [Cpd 1]", "=", 117],
  ["CCc1ccc(Cc2cc([C@@H]3O[C@H](CO)C[C@H](O)[C@H]3O)c(O)cc2C)s1 [Cpd 32]", "=", 97],
  ["Cc1cc(O)c([C@@H]2O[C@H](CO)C[C@H](O)[C@H]2O)cc1C1(c2cc3ccccc3s2)CC1 [Cpd 10]", ">", 3000],
  ["OC[C@@H]1C[C@H](O)[C@@H](O)[C@H](c2cc(Cc3cc4ccccc4s3)c(Cl)cc2O)O1 [Cpd 3]", "=", 115],
  ["OC[C@@H]1C[C@H](O)[C@@H](O)[C@H](c2cc(Cc3cc4ccccc4s3)c(F)cc2O)O1 [Cpd 4]", "=", 893]
]}
